experiment: yeast display, Sf9 membrane polyspecificity reagent, FACS + sequencing; frameworks hold sequencing errors

| residue-codes | polyreactivity (PSR sort gate) |
| --- | --- |
| QVQLVESGGGLVQPGGSLLLRGAASGSIYYRNVMGWYRPAPGKERELVAAISSGGNTYYADSVKGRFTISRDNAKNTVYLQMNSLKPVDTAVYYCNAEYEGLSFGWYEYWYDYWGQGTQVTVSS | high polyreactivity |
| QVQLVESGGGLVQAGGSLRLSCAASGSTFYGYAMGWYRQAPGKERELVAAITRSGGSTYYADSVKGRFTISRDNAKNTVYLQMNSLKPEDTEVYYCNKYGYKGGVGYDYWGQGSQVTVSS | high polyreactivity |
| QVQLEESGGGLVQAGGSLRLSCAAYYAMGWYRQAPGKERELVAAISSTGRTNYADSVKGRFTISRDNAKNTVYLQMNSLKPEDTAVYYCNAGDRSGMEYWGQGTQVTVSS | low polyreactivity |
| QVQLVESGGGLVQAGGSLRLSCAASGSTLPYYAMGWYRQAPGKERELVAAITSSGGDTYYADSVKGRFTISRDNAKNTVYLQMNSLKPEDTAVYYCAKSYSARSTVRKLFYFAYDYWGQGTQVTVSS | low polyreactivity |
| QVQLVESGGGLVQAGGSLRLSCAASGSIFKQNNMGWYRQAPGKERELVAAISSGGSTYYADSVKGRFTISRDNAKNTVYLQMNSLKPEDTAVYYCAKYYDWDYYLPLEGDYWGQGTQVTVSS | low polyreactivity |

---

assay: yeast display, Sf9 membrane polyspecificity reagent, FACS + sequencing; frameworks hold sequencing errors
quantity-name: polyreactivity (PSR sort gate)

| residue-codes | data-value |
| --- | --- |
| QVQLVESGGGLVQAGGSLRLSCAASGITIYGYAMGWYRQAPGKERELVAAISFRSGSTYYADSVKGRFTISRDNAKNTVYLQMNSLKPEDTAVYYCATDRYYRDDYWGQGTQVTVSS | low polyreactivity |
| QVQLVESGGGLVQAGGSLRLRCAASGRTFRYYAMGWYRQAPGKERELVAVINYRGGSTYYADSVKGRFTISRDNEKNTVYLQMNSLKPEDTAVYYCAAQYIGWHLYWYDYWGQGTQVTVSS | low polyreactivity |

---

experiment: yeast display, Sf9 membrane polyspecificity reagent, FACS + sequencing; frameworks hold sequencing errors

| residue-codes | polyreactivity (PSR sort gate) |
| --- | --- |
| QVQLVESGGGLVQAGGSLRLSCAASVSTFAYYAMGWYRQAPGKERELVAVISVSGDGTSTYYADSVKGRFTISRDNAKNTVYLQMNSLKPEDTAVYNCAAEQVLVGGHTYYLTYDYWGQGTQVTVSS | low polyreactivity |
| QVQLVESGGGLVQAGGSLRLSCAASGFTFYNVMGWYRQAPGKERELVATISTSVDSTYYADSVKGRFTISRDNAKNTVYLQMNSLKPEDTAVYYCNADISSNYYDYFGYDYWGQGTQVTVSS | low polyreactivity |
| QVQLVESGGGLVQAGGSLRLSCAASGSTFSYNAMGWYRQAPGKERELVAAITSTGRTYYADSVKGRFTISRDNAKNTVYLQMNSLKPEDTAVYYCNKRARSEQYSYKYGYYYWGQGTQVTVSS | high polyreactivity |
| QVQLVESGGGLVQAGGSLRVSCAASGRTFRGYSMGWSRPAPGKERELVAAISWRGGTTYYADSVKGRFTISRDNAKNTVYLQMNSLKPEDTAVYYCAARRYRISKTSGYWGQGTQVTVSS | high polyreactivity |
| QVQLVESGGGLVQAGGSLRLSCAASGIIFYFYAMGWSRQAPGKERELVAAISSGGGSTYYADSVKGRFTISRDNAKNTVYLQMNSLKPEDTAVYYCAAKIGRNFDWGQGTQVTVSS | high polyreactivity |

---

experiment: yeast display, Sf9 membrane polyspecificity reagent, FACS + sequencing; frameworks hold sequencing errors

| residue-codes | polyreactivity (PSR sort gate) |
| --- | --- |
| QVQLVESGGVLVQAGGSLRLSCAASGIIFFGYAMGWYRQAPGKERELFAAISYSTGGTSTYADSVKGRFTISRDNAKNTVYLQKNSLKPEDTAVYYCAVRRQYRRAYSFSQSRYDYWGQGTQVTVSS | high polyreactivity |
| QVQLVESGGGLVQAGGSLRLSCAASGRIIGKNAMGWYRQAPGEERELVAAIRYNGGRTYYADSVKGRFTISRDNAKNTVYLQMNSLKPEDTAVYYCATRTYRVDPEFGYWGQGTQVTVSS | high polyreactivity |

---

test: yeast display, Sf9 membrane polyspecificity reagent, FACS + sequencing; frameworks hold sequencing errors
quantity-name: polyreactivity (PSR sort gate)

| residue-codes | data-value |
| --- | --- |
| QVQLVESGGGLVQAGGSLRLSCAASGSTFHFYAMGWYRQAPGKERELVASITSRGGNTHYADSVKGRFTISRDNAKNTVYLQMNRLKPEDTAVYYCAARGGWYGTYDYLGQGTQVTVSS | low polyreactivity |
| QVQLVESGGGLVQAGGSLRLSCAASGSTFYRYAMGWYRQAPGKERELVAAITRTTARTYYADSVKGRFTISRDYAKNTVYLQMNSLKPEDTAVYYCAADLYSWTWSGFRQYDYWGQGTQVTVSS | high polyreactivity |
| QVQLVESGGGLVQAGGSLRLSCAASGRTFYYNAMGWYRQAPGKERELVATITSGGSTNYADSVKGRFTISRDYAKNTVYLQMNSLKPEDTAVDYCATTRYRTYADVNSRYGYWGQGTQVTVSS | low polyreactivity |
| QVQLVESGGGVVEAGGSLRLSCAASGSTLGFYARGWYRQAPGKEWEFVAAITRSGTSTYYADSVKGRFTISRDNAKNTVYLQMTSLKPEDTAVYYCPAESYYGVPYDSWGQGTQVTLSS | high polyreactivity |
| QVQLVESGGGLVQAGGSLRLSCAASGSISKINAMGWYRQAPGKERELVAAINTGDSTYYADSVKGRFTISRDNEKNTVYLQMNSLKPEDTAVYYCAAEGSPTGYDYWGQGTQVTVSS | low polyreactivity |
| QLQLVESGGRLVQAGGSLRLSCAASGRTFGRYAMGWYIQAPGKEREFVSSISRSTGRTSYADSVKGRFTISRANAKNTVYLQMNSLKPEDTAVYYCAVRWYYYRDDTIYVLGRYDYWGQGTQVTVSS | high polyreactivity |
| QVHLVESGGGLVQAGGSLRLSCAASGNIITSYAMGWYRQAPGKERELVAAISSGGTTHYADSVKGRFTISRDNAKNTVYLQMNSLKPEDTAVYYCAARQVSYYKANDSWVRSEYDYWGQGTQVSVSS | low polyreactivity |
| QVQLVESGGGLVQAGGSLRLSCAASGRIFGLYAMGWYRQAPGKERELVATITRRGGSTYYADSVKGRFTISRDNAKNTVYLQMNSLKPEDTAVYYCNVRTLVQHHSSYSSRYDSWGQGTQVTVSS | high polyreactivity |
| QDQHVESGGGLVQAGGSLRLSCAASGSTFRKYAMGRSRQAPGKERELVAAISWSGGRTYYADSVKGRFTISRDNAKKTFYLQLNSLKPEDTAVYYCAASIPGTRSDGYWGQGTQVTVSS | high polyreactivity |
| QVQLVESGRGLVQAGGSLRLSCAASGIIFVSYMGWYRQAPGKERELVAAIRWSGGRTYYADSVKGRFTISRDNAKNTVYLQMNSLNPVDTAVYYCAADALRKPKIALYDYWGQGTQVTVSS | high polyreactivity |
| QVQLVESGGGLVQAGGSLRLSCAASGRIFTRYAMGWSRQAPGKERELVAAISSGGSTYYADSVKGRYTISRDKAKNTVYLQMNSLKPEDTAVYYCAAGTWWWYKFNYWGQGTQVTVSS | high polyreactivity |
| QVQLVESGGGLVQAGGSLRLSCAASGYILPKNTMGWYRQAPGKERELVAAISWSGGSTFYADSVKGRFTISRDNAKHTVYLQMNSLKPEDTAVYYCAADRSWSWYYRYDYWGQGTQVTVSS | low polyreactivity |
| QFQLVESGGGLVQAGGSLRLSCAASGCIFLYYAMGSYRPATGNERELVASISSGGSTNYADSVKGRFTISRDNAKNTVYLQMNSLKPEDTAVYYCAARPYGGGRRSIYYYWGQGTQVTESS | high polyreactivity |
| QVQLQESGGGLEQAGGSLRLSCAATGTIFTDRFMGWYRQAPGKERELVAGISPGTSSNSADSVKGRFTISRDNAKNTVYLQMNSLKPEDTAVYYCAADWSTGNTLPYWGQGTQVTVSS | high polyreactivity |
| QVQLVESVGGLVQAGGSLRLSCAATGRIFHYNAMGWYRQAPGKERELVAAITSSGGTTYYADSVKGRFTISRDIAKNTVYLQMNTLKPEDTAVYYCNAVTSARVNYRGQGTQVTVSS | high polyreactivity |
| QVQLVESGGGLDQAGGSLRLSCAASGRTFRNYVMGWYRQAPGKERELVAAISRSGGSTYYADSVKGRFTISRDNAKNSVYLQMNSLKPEDTAVYYCNTVTTYDVEYWGQGTQVTVSS | high polyreactivity |
| QVQLVESGGGLVQAGGSLRLTCAPSRSIFVAYTMGWYRQAPGKERELVAAISRGGSTNYADSVKGRFTISRDNAKNTVYLQMNSLTPEETAVYYCAAKVWDGQLLYYWGQGTQVTVSS | low polyreactivity |
| QVQLQESGGGLVQAGGSLRRSCAATGSIFYRLKMGWHRQATGKERELVATIDPGSNTYYADSVKGSFTMSRDNAKNTVYPQMYSLKPEDTAVYYCAVSAHWTIHYYYWGQGTQVTVSS | high polyreactivity |
| QVQLVESGGGLVQAGGSLRLSCAASGRTFRIYATGWYRQAPGKERELVAAITRGGSTYYADSVKGRFTISRDNAKNTVYLQMNSLKPEDTAVYYCNAAPYYWGYDYWGQGTQVTVSS | high polyreactivity |
| QVQLVESGGGLVQAGGSLRLSCAASGSIFAKNAMGWYRQAPGKERELVAGIDFSGGSTYYADSVKGRFTISRDNAKNTVYLQMNSLKPEDTAVDYCAADWAYKYELDYWGQGTQVTVSS | low polyreactivity |
| QVQLVESGGGLVQAGGSLRLSCAASGGIIWAYAMGWYRQAPGKERELVAAISSSTGTTYYADSVKGRFTISRDNAKNTVYLQMNSLKPEDTAVYYCAAYAYIGDYVSYYGGDYWGQGTQVTVSS | low polyreactivity |

Values compiled from the nanobody polyreactivity screen of Harvey et al. (2022).
